METHOD: 14-day oral gavage toxicokinetic study in rats
Format: in vivo
CONDITION_SUMMARY: male, rat, plasma, po, 5 mg/kg, Mean Compound 1 Plasma Concentration, rats, oral 5 mg/kg, Day 1, 0.5 h, Male
QUANTITY: concentration at 0.5 h (ng/mL)
Record the value in ng/mL, omitting the unit from your answer.

I am curious: what concentration at 0.5 h value has been reported for `CN1CCN(c2ccc(Nc3ncc4cc5n(c4n3)C3(CCCCC3)CNC5=O)nc2)CC1` ?
237

====

METHOD: Single escalating dose IV infusion pharmacokinetics in healthy volunteers (noncompartmental)
Type: in vivo, human
CONDITION_SUMMARY: both sexes, human, plasma, iv, 96 mg/m^2, Cohort 5, 96 mg/m^2, 30-minute IV infusion; noncompartmental; subjects 1-6, Mean, Min, Median, Max, Geometric Mean; read-out: Cmax
QUANTITY: Cmax (ng/mL)
Record the value in ng/mL, omitting the unit from your answer.

I am curious: what Cmax value has been reported for CN1CCN(c2ccc(Nc3ncc4cc5n(c4n3)C3(CCCCC3)CNC5=O)nc2)CC1 [Compound 1] ?
949

====

METHOD: 14-day oral gavage toxicokinetic study in rats
Type: in vivo
CONDITION_SUMMARY: both sexes, rat, plasma, po, 30 mg/kg, oral 30 mg/kg, Study Day 14, Overall
QUANTITY: AUC(0-t) (ng·h/mL)
Record the value in ng·h/mL, omitting the unit from your answer.

I am curious: what AUC(0-t) value has been reported for `CN1CCN(c2ccc(Nc3ncc4cc5n(c4n3)C3(CCCCC3)CNC5=O)nc2)CC1` ?
35000

====

METHOD: 14-day oral gavage toxicokinetic study in rats
Type: in vivo
CONDITION_SUMMARY: female, rat, plasma, po, 15 mg/kg, Individual Compound 1 Plasma Concentration, rats, daily oral 15 mg/kg, Day 14, Female, 0.5 h
QUANTITY: concentration at 0.5 h (ng/mL)
Record the value in ng/mL, omitting the unit from your answer.

I am curious: what concentration at 0.5 h value has been reported for `CN1CCN(c2ccc(Nc3ncc4cc5n(c4n3)C3(CCCCC3)CNC5=O)nc2)CC1` ?
908

====

METHOD: Single escalating dose IV infusion pharmacokinetics in healthy volunteers (noncompartmental)
Type: in vivo, human
CONDITION_SUMMARY: both sexes, human, plasma, iv, 48 mg/m^2, Compound 1 Concentration, Cohort 4, 48 mg/m^2 IV; Time 3.50 h; r7-9=Subjects 1-3,r11=Mean,r13=Min,r14=Median,r15=Max,r17=Geometric Mean
QUANTITY: concentration at 3.5 h (ng/mL)
Record the value in ng/mL, omitting the unit from your answer.

I am curious: what concentration at 3.5 h value has been reported for `CN1CCN(c2ccc(Nc3ncc4cc5n(c4n3)C3(CCCCC3)CNC5=O)nc2)CC1` ?
27.6

====

METHOD: 14-day oral gavage toxicokinetic study in rats
Assay type: in vivo
CONDITION_SUMMARY: both sexes, rat, plasma, po, 15 mg/kg, oral 15 mg/kg, Study Day 1, Overall
QUANTITY: Tmax (h)
Record the value in h, omitting the unit from your answer.

I am curious: what Tmax value has been reported for `CN1CCN(c2ccc(Nc3ncc4cc5n(c4n3)C3(CCCCC3)CNC5=O)nc2)CC1` ?
2

====

METHOD: 14-day oral gavage toxicokinetic study in rats
Type: in vivo
CONDITION_SUMMARY: both sexes, rat, plasma, po, 5 mg/kg, Mean Compound 1 Plasma Concentration, rats, oral 5 mg/kg, Day 1, 2 h, Overall
QUANTITY: concentration at 2 h (ng/mL)
Record the value in ng/mL, omitting the unit from your answer.

I am curious: what concentration at 2 h value has been reported for CN1CCN(c2ccc(Nc3ncc4cc5n(c4n3)C3(CCCCC3)CNC5=O)nc2)CC1 [Compound 1] ?
391
